The reported measurements were obtained from patent US10125126B2.

EXPERIMENTAL_DETAILS: log P by HPLC on a reversed-phase column (C 18), EEC Directive 79/831 Annex V.A8
Type: physicochemical
RUN_PARAMETERS: HPLC on reversed-phase column (C 18), 40° C., 0.1% aqueous formic acid and acetonitrile, linear gradient 10% to 90% acetonitrile

CHEMICAL_STRING	logP
COc1ccsc1-c1ccc(C)cc1CN(C(=O)c1c(C(F)F)nn(C)c1Cl)C1CC1	3.99
Cc1nc(C(F)F)c(C(=O)N(Cc2cc(-c3ccco3)ccc2Cl)C2CC2)s1	3.99
Cn1nc(C(F)F)c(C(=O)N(Cc2cc(F)ccc2-c2ccsc2Cl)C2CC2)c1F	4.04
O=C(c1ccsc1I)N(Cc1ccccc1-c1ccco1)C1CC1	4.01
